composite z-score values by entry
biological target: Epidermal growth factor receptor (Homo sapiens); assay: EGFR binders on small-molecule microarrays, primary screen, biochemical, small-molecule microarray, 635 nm fluorescence (AID 1104); details: EGFR binding, higher = more signal;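 also: score merges 667 nm emission intensity with spot signal to noise over triplicate slides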
Output: the number by itself.

Past entries and their recorded results:
[[record]]
compound = "CCCCCN1CC=CC23O[C@@H]4C=CCOC(=O)[C@@H]4[C@H]2C(=O)N(CCCCCO)[C@@H]3C1=O (some centres not stated)"
value_measured = -0.728

[[record]]
compound = "CCOC(=O)C[C@H]1[C@H](OC(=O)Cc2ccc3c(c2)OCO3)[C@@H](NC(=O)c2ccccc2)c2cc(OCCCO)ccc2N1C(=O)Cc1ccc(OC)cc1"
value_measured = 0.237

[[record]]
compound = "COCCOC(=O)N1C(=O)[C@@]2(c3cc(C#CCCO)ccc31)[C@H](C(=O)N1CCc3cc(OC)c(OC)cc3C1)[C@H]1C(=O)O[C@H](c3ccccc3)[C@H](c3ccccc3)N1[C@@H]2c1ccccc1OCCO"
value_measured = 0.861


// switching to the query compound
What composite z-score value was documented for this compound, C=CCNC(=O)[C@H]1[C@@H]2C(=O)O[C@@H](c3ccccc3)[C@@H](c3ccccc3)N2[C@@H](c2ccc(O)cc2)[C@]12C(=O)Nc1ccc(C#CC3=CCCCC3)cc12 ?
0.859

* * *

assay: modulators of S6 phosphorylation in cells, primary screen, cell-based, A549, cytoblot, luminescence, serum-stimulated (AID 1158); conditions: A549 phospho-S6 cytoblot, 5 h, higher = more signal;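 also: serum-stimulated A549 lung adenocarcinoma cells; signal is phosphorylated S6 detected by cytoblot immunostaining with HRP secondary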
z-score values by entry
Output: the number by itself.

[[record]]
compound = "[N-]=[N+]=NCc1ccccc1C[C@]1(C(=O)NCc2ccccc2)N=C(c2ccc(OCCCO)cc2)O[C@H]1c1ccccc1CN=[N+]=[N-]"
value_measured = 2.34

[[record]]
compound = "CCCC[C@@H]1C[C@H]1[C@@H](NC(=O)Cc1ccccc1)c1ccc(Cl)cc1"
value_measured = -1.06


What z-score value was documented for this compound, CN(C)C(=O)[C@@]1(CCS(=O)(=O)c2ccccc2)N=C(c2ccc(OCCCO)cc2)O[C@H]1c1ccccc1N=[N+]=[N-] ?
-0.76

What z-score value was documented for this compound, C=CCC(OC(C)=O)[C@@H]1[C@@H](N(Cc2ccc(-c3cccc(C(F)(F)F)c3)o2)C(=O)Cc2ccc(F)cc2)c2cc(OCCCO)ccc2N1C(=O)c1ccc2ccccc2c1 (some centres undefined) ?
0.531

What z-score value was documented for this compound, C=C(COC)C(=O)CC[C@@H](OC(C)=O)c1ccc(OCCO)cc1 ?
0.239

What z-score value was documented for this compound, CCOC(=O)C[C@H]1[C@H](OC(=O)c2ccc(-c3ccccc3)cc2)[C@@H](NC(=O)c2ccc3ccccc3c2)c2cc(OCCCO)ccc2N1C(=O)c1ccccc1 ?
0.263

What z-score value was documented for this compound, CC(C)(C)N1CC=CC23O[C@@H]4/C=C\CCCOC(=O)C4[C@H]2C(=O)N(CCCCCCO)[C@@H]3C1=O (some centres undefined) ?
1.97

What z-score value was documented for this compound, COc1ccc(C(O)C2C=CC3C(=O)N(C)C(=O)C3N2Nc2ccc([N+](=O)[O-])cc2[N+](=O)[O-])cc1OCc1ccccc1 (centres undefined) ?
-1.21

* * *

test system: Sam68 (KHDRBS1); assay: Sam68 small-molecule binders, primary screen, biochemical, small-molecule microarray, 635 nm fluorescence (AID 1125); details: small-molecule microarray binding, higher = more signal;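 also: score merges 667 nm channel intensity with signal to noise over triplicate slides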
result.type: composite z-score

[[record]]
cpd_smiles = "[N-]=[N+]=NCc1ccccc1C[C@@]1(C(=O)O)N=C(c2ccc(OCCCO)cc2)O[C@@H]1c1ccccc1CN=[N+]=[N-]"
target_entity = "Sam68 (KHDRBS1)"
value_measured = 1.31

[[record]]
cpd_smiles = "C=CCOC(=O)[C@H]1[C@@H]2C(=O)O[C@@H](c3ccccc3)[C@@H](c3ccccc3)N2[C@@H](c2ccc(OCCOC(=O)[C@@H]3C[C@@H]4C(=O)N[C@@H](Cc5ccccc5)C(=O)N4[C@@H]3c3ccc(O)cc3)cc2)[C@]12C(=O)Nc1ccccc12"
target_entity = "Sam68 (KHDRBS1)"
value_measured = 1.3


// switching to the query molecule
What composite z-score value was documented for this molecule, COc1ccc(CCNC(=O)[C@@]2(Sc3ccc(C)cc3)CC(=O)N(C(C)C)[C@@H]2c2ccc(CO)cc2)cc1 ?
-0.346

Just for reference, PubChem BioAssay is where these values come from.
